Reference source: patent US20230029194A1

# ASSAY SYSTEM: Myeloid Cell Leukemia 1 (Mcl-1) (Homo sapiens)
# Sequence (Q07820 whole entry): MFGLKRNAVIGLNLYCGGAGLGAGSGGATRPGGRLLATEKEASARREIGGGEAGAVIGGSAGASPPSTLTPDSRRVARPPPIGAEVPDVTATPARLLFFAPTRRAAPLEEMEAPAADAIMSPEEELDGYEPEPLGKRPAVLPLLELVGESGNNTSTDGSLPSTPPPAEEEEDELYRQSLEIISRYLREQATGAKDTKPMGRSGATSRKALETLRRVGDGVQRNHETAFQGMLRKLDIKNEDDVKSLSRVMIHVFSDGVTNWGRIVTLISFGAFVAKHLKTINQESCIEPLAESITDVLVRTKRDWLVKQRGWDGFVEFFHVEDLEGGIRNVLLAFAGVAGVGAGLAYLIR
# PROTOCOL SUMMARY: Terbium labeled Mcl-1 HTRF binding assay utilizing the Cy5-labeled BIM BH3 peptide
# RUN CONDITIONS: values obtained after recalibration of the equipment; averaged over several runs
Recorded Ki, one value per entry.
MEASUREMENT LABEL: Ki (nM)

- MOLECULE: "Cc1c2c(nn1C)CN(C)Cc1cc(n(C)n1)CS(=O)(=O)c1cc(c3ccccc3c1)OCCCc1c(C(=O)O)n(C)c3c-2c(Cl)ccc13 (single isomer, unassigned) [Compound 2]"
  UNIT TEXT: "nM"
  NUMERIC VALUE: 153
- MOLECULE: "Cc1c2c(nn1C)CN(C)Cc1cc(n(C)n1)CS(=O)(=O)c1cc(c3ccccc3c1)OCCCc1c(C(=O)O)n(C)c3c-2c(Cl)ccc13 (single isomer, unassigned) [Compound 1]"
  UNIT TEXT: "nM"
  NUMERIC VALUE: 0.56
- MOLECULE: "Cc1c2c(nn1C)CS(=O)(=O)Cc1cc(n(C)n1)CSc1cc(c3ccccc3c1)OCCCc1c(C(=O)O)n(C)c3c-2c(Cl)ccc13 (single isomer, unassigned) [Compound 3]"
  UNIT TEXT: "nM"
  NUMERIC VALUE: 0.04
- MOLECULE: "Cc1c2c(nn1C)CS(=O)(=O)Cc1cc(n(C)n1)CSc1cc(c3ccccc3c1)OCCCc1c(C(=O)O)n(C)c3c-2c(Cl)ccc13 (single isomer, unassigned) [Compound 4]"
  UNIT TEXT: "nM"
  NUMERIC VALUE: 3
